// endpoint Ki / system Kappa-type opioid receptor (Cavia porcellus)
measured.endpoint: Ki

COc1cccc(C23CCN(C)C(C2)/C(=C\c2ccccc2)C(=O)C3)c1 (single isomer, unassigned; (+)) | > 500 nM
CN1CCC2(c3cccc(O)c3)CC(=O)/C(=C/c3ccccc3)C1C2 (single isomer, unassigned; (+)) | 1090 nM
COc1cccc(/C=C2/C(=O)CC3(c4cccc(O)c4)CCN(C)C2C3)c1 (stereo in doubt; 6) | > 500 nM
COc1ccc(/C=C2/C(=O)CC3(c4cccc(O)c4)CCN(C)C2C3)cc1 (single isomer, unassigned; (+)) | > 500 nM
CN1CCC2(c3cccc(O)c3)CC(=O)/C(=C/c3cccc(Cl)c3)C1C2 (stereo in doubt; (+)-7) | > 500 nM
CN1CCC2(c3cccc(O)c3)CC(=O)/C(=C/c3cccc(Cl)c3)C1C2 (stereo in doubt; 7) | 246 nM

###

system.under.test: UniProt:P33535
Sequence (P33535 whole entry): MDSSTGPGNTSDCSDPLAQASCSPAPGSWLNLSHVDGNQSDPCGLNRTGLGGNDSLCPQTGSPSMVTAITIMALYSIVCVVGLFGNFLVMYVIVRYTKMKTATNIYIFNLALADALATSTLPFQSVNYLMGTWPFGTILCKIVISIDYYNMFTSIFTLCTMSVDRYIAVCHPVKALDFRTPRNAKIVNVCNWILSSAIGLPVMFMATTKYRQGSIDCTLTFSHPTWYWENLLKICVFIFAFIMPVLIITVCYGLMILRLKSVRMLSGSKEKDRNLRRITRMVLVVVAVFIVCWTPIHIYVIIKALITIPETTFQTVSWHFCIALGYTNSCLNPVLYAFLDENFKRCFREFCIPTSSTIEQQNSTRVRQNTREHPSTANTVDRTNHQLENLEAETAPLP
measured.endpoint: Ki (nM)

CN1CCC2(c3cccc(O)c3)CC(=O)/C(=C/c3ccc(Cl)cc3)C1C2 (stereo in doubt; (+)-5) | 6.4
CN1CCC2(c3cccc(O)c3)CC(=O)/C(=C/c3ccc(Cl)cc3)C1C2 (stereo in doubt; 5) | 21.6
CN1CCC2(c3cccc(O)c3)CC(=O)/C(=C/c3ccc(Cl)c(Cl)c3)C1C2 (single isomer, unassigned; (-)) | 45.1
CN1CCC2(c3cccc(O)c3)CC(=O)/C(=C/c3ccccc3)C1C2 (stereo in doubt; (-)-2) | 392
CN1CCC2(c3cccc(O)c3)CC(=O)/C(=C/c3ccc(Cl)cc3)C1C2 (single isomer, unassigned; (-)) | 48.2
